These measurements were taken from ChEMBL document CHEMBL3714729.

Let's look at some compounds and their measured pIC50.
Target: PAS domain-containing serine/threonine-protein kinase (Homo sapiens)
Sequence (Q96RG2 whole entry, the tested form may be a part): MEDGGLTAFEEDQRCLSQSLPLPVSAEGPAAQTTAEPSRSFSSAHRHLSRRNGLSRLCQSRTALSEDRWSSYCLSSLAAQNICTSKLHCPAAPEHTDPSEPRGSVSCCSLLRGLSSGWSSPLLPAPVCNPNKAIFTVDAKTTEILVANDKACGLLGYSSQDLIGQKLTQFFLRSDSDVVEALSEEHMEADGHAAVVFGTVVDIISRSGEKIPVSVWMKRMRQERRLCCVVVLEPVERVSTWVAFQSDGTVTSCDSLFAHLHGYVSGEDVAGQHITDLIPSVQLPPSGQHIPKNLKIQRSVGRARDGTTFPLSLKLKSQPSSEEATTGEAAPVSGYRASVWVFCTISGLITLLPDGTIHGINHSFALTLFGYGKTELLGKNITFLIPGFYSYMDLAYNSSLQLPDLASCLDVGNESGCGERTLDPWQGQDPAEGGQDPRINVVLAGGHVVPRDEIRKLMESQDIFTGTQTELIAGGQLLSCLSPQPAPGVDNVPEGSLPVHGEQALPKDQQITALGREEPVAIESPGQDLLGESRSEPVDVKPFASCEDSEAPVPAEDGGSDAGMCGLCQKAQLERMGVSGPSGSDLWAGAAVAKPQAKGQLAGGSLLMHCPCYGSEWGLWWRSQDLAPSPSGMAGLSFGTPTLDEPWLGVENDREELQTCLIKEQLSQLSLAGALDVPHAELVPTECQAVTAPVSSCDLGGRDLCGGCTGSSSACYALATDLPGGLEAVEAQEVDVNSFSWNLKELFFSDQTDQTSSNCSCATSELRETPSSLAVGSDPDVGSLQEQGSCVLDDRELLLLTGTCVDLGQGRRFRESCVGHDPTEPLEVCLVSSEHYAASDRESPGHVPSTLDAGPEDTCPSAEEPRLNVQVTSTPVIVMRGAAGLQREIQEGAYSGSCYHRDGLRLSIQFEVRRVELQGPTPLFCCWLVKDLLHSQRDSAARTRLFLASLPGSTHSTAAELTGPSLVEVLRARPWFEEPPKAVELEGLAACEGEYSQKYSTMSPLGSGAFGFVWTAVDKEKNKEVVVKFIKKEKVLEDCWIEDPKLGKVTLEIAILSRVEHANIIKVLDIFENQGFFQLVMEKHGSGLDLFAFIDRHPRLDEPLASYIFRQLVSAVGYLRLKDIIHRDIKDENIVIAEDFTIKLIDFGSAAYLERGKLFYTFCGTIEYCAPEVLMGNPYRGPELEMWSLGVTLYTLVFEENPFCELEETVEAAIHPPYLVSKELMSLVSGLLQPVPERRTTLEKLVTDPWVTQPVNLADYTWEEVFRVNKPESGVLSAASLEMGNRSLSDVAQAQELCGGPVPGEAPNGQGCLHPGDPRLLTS
Experiment: Inhibition of purified full-length human PASK expressed in insect cells using MBP protein substrate incubated for 10 mins before ATP addition and measured after 1 hr by kinase-Glo luminescent kinase assay
pIC50: −log10 of the molar value.

QUERY: Given the entry Cc1[nH]c2c(-c3ccc(Cl)cc3)cnn2c(=O)c1Cc1ccccc1 , report its measured pIC50.
RESULT: ≥ 5.00

Next:
QUERY: Need pIC50 of Cc1cc(=O)n2nc(-c3cccc(Br)c3)cc2[nH]1 , thanks.
RESULT: ≥ 5.00

QUERY: Item under review: CCc1c(C)[nH]c2c(-c3ccc(Cl)cc3)c(C)nn2c1=O . Reported pIC50?
RESULT: ≤ 5.00

QUERY: Param item = CCc1c(C)[nH]c2c(-c3ccccc3)c(Cc3ccc(OC)cc3)nn2c1=O ; retrieve measured pIC50.
RESULT: ≤ 5.00

QUERY: // returns reported pIC50 for input O=c1cc(-c2ccccc2)[nH]c2c(-c3cccc4ccccc34)c(Cc3ccccc3)nn12
RESULT: ≤ 5.00

QUERY: May I ask what pIC50 has been recorded for Cc1nn2c(=O)cc(-c3ccccc3)[nH]c2c1-c1ccc(F)cc1 ?
RESULT: ≤ 5.00

QUERY: Please report the recorded pIC50 for O=c1c2c([nH]c3c(-c4ccccc4)c(-c4ccccc4)nn13)CCC2 .
RESULT: ≤ 5.00

QUERY: // returns reported pIC50 for input Cc1nn2c(=O)cc(-c3ccccc3)[nH]c2c1-c1ccc(Cl)cc1
RESULT: ≥ 5.00

QUERY: Please give the measured pIC50 for this compound: COc1ccc(Cc2nn3c(=O)cc(C)[nH]c3c2-c2ccccc2)cc1
RESULT: ≤ 5.00

QUERY: Can you share its pIC50? I mean this compound: O=c1cc(-c2ccccc2)[nH]c2c(-c3ccccc3)c(Cc3ccccc3)nn12
RESULT: ≤ 5.00

QUERY: Return reported pIC50; argument: COc1ccc(-c2nn3c(=O)cc(C(C)C)[nH]c3c2-c2ccccc2)cc1
RESULT: ≤ 5.00

QUERY: Item under review: Cc1nn2c(=O)c3c([nH]c2c1-c1ccc(Cl)cc1)CCC3 . Reported pIC50?
RESULT: ≤ 5.00

QUERY: Consider the compound CCCc1cc(=O)n2nc(C)c(-c3ccc(Cl)cc3)c2[nH]1 and give its measured pIC50.
RESULT: ≤ 5.00

QUERY: Name the reported pIC50 value associated with the compound O=c1cc(-c2ccc([N+](=O)[O-])cc2)[nH]c2c(-c3ccc(Cl)cc3)c(Cc3ccccc3)nn12
RESULT: ≥ 5.00
